MEASURED TARGET: NaV1.6 (Homo sapiens (Human), UniProt Q9UQD0)
Sequence (Q9UQD0 whole entry): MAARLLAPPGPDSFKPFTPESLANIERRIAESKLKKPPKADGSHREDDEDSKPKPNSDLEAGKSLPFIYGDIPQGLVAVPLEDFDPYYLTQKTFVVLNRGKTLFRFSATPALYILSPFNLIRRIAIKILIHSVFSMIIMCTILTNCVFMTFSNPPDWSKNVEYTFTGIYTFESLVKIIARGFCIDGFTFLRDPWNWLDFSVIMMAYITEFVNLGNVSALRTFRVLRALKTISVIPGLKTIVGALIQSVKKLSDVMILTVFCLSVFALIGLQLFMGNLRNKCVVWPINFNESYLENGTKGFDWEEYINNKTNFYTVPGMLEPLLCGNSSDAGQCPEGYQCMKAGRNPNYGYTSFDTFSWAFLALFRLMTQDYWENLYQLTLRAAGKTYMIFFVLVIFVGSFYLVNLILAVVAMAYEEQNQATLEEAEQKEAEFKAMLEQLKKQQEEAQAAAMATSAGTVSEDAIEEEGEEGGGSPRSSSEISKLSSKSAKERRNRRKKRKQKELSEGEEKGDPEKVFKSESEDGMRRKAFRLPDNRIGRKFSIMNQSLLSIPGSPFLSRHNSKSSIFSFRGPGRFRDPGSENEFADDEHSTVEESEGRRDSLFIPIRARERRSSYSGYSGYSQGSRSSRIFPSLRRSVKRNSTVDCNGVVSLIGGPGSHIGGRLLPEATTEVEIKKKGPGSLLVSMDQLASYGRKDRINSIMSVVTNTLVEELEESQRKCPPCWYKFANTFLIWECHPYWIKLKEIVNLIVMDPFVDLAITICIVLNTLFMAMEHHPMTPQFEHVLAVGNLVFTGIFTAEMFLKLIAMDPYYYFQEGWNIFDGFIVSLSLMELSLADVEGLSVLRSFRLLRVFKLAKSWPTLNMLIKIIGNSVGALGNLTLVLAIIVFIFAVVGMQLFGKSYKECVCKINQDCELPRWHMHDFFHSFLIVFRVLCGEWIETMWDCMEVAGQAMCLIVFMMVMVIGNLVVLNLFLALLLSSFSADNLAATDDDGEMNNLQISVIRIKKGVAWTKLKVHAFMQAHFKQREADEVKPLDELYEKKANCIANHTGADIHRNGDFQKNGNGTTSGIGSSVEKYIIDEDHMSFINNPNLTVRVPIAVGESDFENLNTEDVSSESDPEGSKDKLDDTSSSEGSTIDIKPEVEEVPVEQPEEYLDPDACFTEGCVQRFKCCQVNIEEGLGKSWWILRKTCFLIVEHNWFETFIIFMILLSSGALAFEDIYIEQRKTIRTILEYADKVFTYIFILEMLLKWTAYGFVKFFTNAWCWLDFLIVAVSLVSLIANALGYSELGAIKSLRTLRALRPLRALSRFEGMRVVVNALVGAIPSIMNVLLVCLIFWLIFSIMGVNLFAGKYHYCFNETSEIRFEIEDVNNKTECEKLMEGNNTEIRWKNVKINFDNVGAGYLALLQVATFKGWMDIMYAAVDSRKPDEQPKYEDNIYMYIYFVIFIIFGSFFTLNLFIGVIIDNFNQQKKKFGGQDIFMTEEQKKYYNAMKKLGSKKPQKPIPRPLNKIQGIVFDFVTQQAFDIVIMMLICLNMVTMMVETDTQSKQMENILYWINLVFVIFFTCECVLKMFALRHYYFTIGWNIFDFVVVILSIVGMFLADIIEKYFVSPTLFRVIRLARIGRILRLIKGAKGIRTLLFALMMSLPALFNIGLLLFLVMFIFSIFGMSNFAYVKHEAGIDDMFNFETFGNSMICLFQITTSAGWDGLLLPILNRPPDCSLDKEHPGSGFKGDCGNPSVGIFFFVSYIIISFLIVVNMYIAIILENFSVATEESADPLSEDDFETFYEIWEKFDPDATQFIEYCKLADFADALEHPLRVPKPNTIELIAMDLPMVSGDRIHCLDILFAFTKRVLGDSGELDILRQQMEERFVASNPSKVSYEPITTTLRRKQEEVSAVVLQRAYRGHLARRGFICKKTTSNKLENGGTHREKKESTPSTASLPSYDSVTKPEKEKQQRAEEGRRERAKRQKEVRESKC
MEASUREMENT DESCRIPTION: Electrophysiological Assay (EP), patch voltage clamp, NaV1.6
Type: cell-based
EXPERIMENTAL CONTEXT: HEK-293 cells, whole-cell patch clamp, inactivated state; arithmetic mean
// reported IC50 per item
Record the value in µM, omitting the unit from your answer.

Some entries whose results are on file:
# IC50 of CC[C@@H](c1ccccc1)N1CC[C@H](N(C)c2cc(F)c(S(=O)(=O)Nc3cscn3)cc2Cl)C1 [Example 242] = 0.668

IC50 reading for Cc1cccc(CN2CCC(Oc3ccc(S(=O)(=O)Nc4nccs4)cc3Cl)CC2)c1 [Example 92] : 0.081

Record CN(c1ccc(S(=O)(=O)Nc2cscn2)cc1Cl)[C@H]1CCN(C(C)(C)c2ccccc2)C1 [Example 62] , field IC50: 0.15

Moving on to the next compound.
Looking up O=S(=O)(Nc1ncns1)c1ccc(NC2CCN(Cc3ccccc3)CC2)c(Cl)c1 [Example 46, 2,2,2-trifluoroacetate] , I see its IC50 listed as 0.278

Sourced from patent US10246453B2
